details: Crystal 1; DTA
Label fulfilled when Triple point temperature is at or above 300 K; anything below gets not fulfilled.

Completed entries (count: 4):
1) CCCCCCCCOCn1cc[n+](COCCCCCCCC)c1.O=S(=O)([N-]S(=O)(=O)C(F)(F)F)C(F)(F)F = not fulfilled
2) CCCC[N+](C)(C)CCO.[Br-] [N-(2-hydroxyethyl)-N,N-dimethylbutanaminium bromide] = fulfilled
3) CC[N+](C)(C)CCO.F[P-](F)(F)(F)(F)F = not fulfilled
4) CC[N+](C)(C)CCO.N#C[N-]C#N [N-ethyl-2-hydroxyethyl-N,N-dimethylammonium dicyanamide] = not fulfilled

Task: Determine whether this compound has Triple point temperature no lower than 300 K: CCCCOCn1cc[n+](COCCCC)c1.F[B-](F)(F)F [1,3-bis(butoxymethyl)-1H-imidazolium tetrafluoroborate]
Result: not fulfilled

Task: Try CC[N+](C)(C)CCO.F[B-](F)(F)F next.
Result: fulfilled
